These measurements were taken from ChEMBL document CHEMBL1857833.

System: Trypanosoma brucei
Assay: DNDI: Inhibition of Human African Trypanosomiasis, SBRI 427, in vitro at 2 ug.mL-1
Type: functional
The campaign covered roughly 4,400 compounds. About 390 (8.9%) showed an effect of 50% or more. Many of the other results were omitted from the sample, so strong results are more common in it than they were.
observable: % inhibition

The following molecules each have a reported value; give each one's % inhibition.
1. CC(C)(C)CN/C(=N\O)c1ccnc(Oc2cccc(F)c2)c1
2. CCC(C)(C)N/C(=N\O)c1ccnc(Oc2cccc(F)c2)c1
3. CSc1ccccc1Oc1ncccc1/C(=N/O)N1CCN(c2ccc(F)cc2)CC1
4. Clc1cccc(N2CCN(Cc3coc(-c4ccccc4Br)n3)CC2)c1
5. Cc1cn(/C(=N\O)c2cccnc2Oc2c(F)cccc2F)cn1
6. CCN1CCN(Cc2coc(-c3ccc(C(F)(F)F)cc3)n2)CC1

Solution:
1. 76%
2. 1%
3. 19%
4. 7%
5. -7%
6. 10%

The following molecules each have a reported value; give each one's % inhibition.
1. COCC(C)N/C(=N\O)c1cccnc1Oc1ccccc1OC(C)C (stereo unspecified)
2. CN(/C(=N\O)c1cccnc1Oc1ccc(-n2cncn2)cc1)C1CCCCC1
3. N/C(=N\O)c1cccnc1OCc1cccc(F)c1

Solution:
1. -8%
2. 14%
3. -4%

###

Tested on: Trypanosoma brucei
Experiment: DNDI: Inhibition of Human African Trypanosomiasis, SBRI 427, in vitro at 2 ug.mL-1
Assay type: functional
Among all 4,400 compounds or so, about 390 (8.9%) showed an effect of 50% or more. Many of the other results were omitted from the sample, so strong results are more common in it than they were.
observable: % inhibition (%)
Answers are plain numbers, in %.

Fc1ccccc1-c1nc(CNCc2cccc3ccccc23)co1; 24

The following molecules each have a reported value; give each one's % inhibition.
1. Cc1cn(Cc2coc(-c3ccc(F)cc3)n2)cn1
2. Cc1ccc(-c2nc(CNC(C)CC(C)C)co2)cc1 (configuration not stated)
3. CC(C)c1ccc(Oc2ncccc2/C(=N/O)NCc2ccco2)cc1
4. COc1ccc(-c2nc(Cn3nc(C)cc3C)co2)cc1

Solution:
[9, 4, 96, -6]

The following molecules each have a reported value; give each one's % inhibition.
1. Cc1cn(Cc2coc(-c3cccc(F)c3)n2)c(-c2ccccc2)n1
2. O/N=C(\NCc1cccs1)c1cccnc1Oc1ccc2oc3ccccc3c2c1

Solution:
[-9, 75]

The following molecules each have a reported value; give each one's % inhibition.
1. O/N=C(\NC1CCCC1)c1ccc(Oc2cccc3c2CCCC3)nc1
2. O/N=C(\NCc1c(F)cccc1F)c1ccc(Oc2cccc3c2CCCC3)nc1
3. COc1ccc(CNCc2coc(-c3ccc(F)cc3)n2)cc1OC
4. CCOc1ccc(-c2nc(CN(CC)C(C)(C)C)co2)cc1

Solution:
1. 97
2. 15
3. -5
4. 6

###

System: Trypanosoma brucei
Experiment: DNDI: Inhibition of Human African Trypanosomiasis, SBRI 427, in vitro at 2 ug.mL-1
Assay type: functional
The campaign covered roughly 4,400 compounds. About 390 (8.9%) showed an effect of 50% or more. Shown is part of a subset that was picked to be rich in strong results.
% inhibition of 40% or higher: met. Under 40%: not met.

Example cases with answers are listed next.
Fc1ccccc1-c1nc(CNc2ccccc2)co1; not met
Cc1cc(C)cc(CN/C(=N\O)c2ccc(C)nc2Oc2cc(Cl)ccc2Cl)c1; met
CCOc1cccc(-c2nc(CNCCN3CCCC3)co2)c1; not met

Now let's try a different one.
Exercise: Answer whether % inhibition of COc1cc(-c2nc(CNCC(c3ccccc3)c3ccccc3)co2)cc(OC)c1OC is greater than or equal to 40%.
Solution: not met

###

Tested on: Trypanosoma brucei
Test: DNDI: Inhibition of Human African Trypanosomiasis, SBRI 427, in vitro at 2 ug.mL-1
Format: functional
The campaign covered roughly 4,400 compounds. About 390 (8.9%) showed an effect of 50% or more. This excerpt belongs to a sample that is enriched for strong results.
% inhibition of 10% or higher: T. Under 10%: F.

Exercise: Answer whether % inhibition of COc1cc(-c2nc(CN(C)CCc3ccccn3)co2)cc(OC)c1OC is greater than or equal to 10%.
Solution: F

Exercise: Again, but for Cc1ccc(/C(=N/O)N2CCN(c3ccc(F)cc3)CC2)c(OCc2ccccc2F)n1
Solution: F

Exercise: Again, but for O/N=C(/c1ccnc(Oc2ccc(F)c(F)c2)c1)N1CCCCCC1
Solution: T

Exercise: Again, but for O/N=C(\NCc1ccccn1)c1ccnc(Oc2cccc(F)c2)c1
Solution: F

Exercise: Again, but for CCN(Cc1coc(-c2ccccc2Cl)n1)c1ccc(C)cc1
Solution: F

Exercise: Again, but for O/N=C(\NC1CCCC1)c1ccnc(Oc2ccc(F)c(F)c2)c1
Solution: T

Exercise: Again, but for O/N=C(/c1ccc(Oc2cc(Cl)ccc2Cl)nc1)N1CCSCC1
Solution: F

Exercise: Again, but for COc1cccc(-c2nc(CN3CCOCC3)co2)c1
Solution: T

###

System: Trypanosoma brucei
Assay: DNDI: Inhibition of Human African Trypanosomiasis, SBRI 427, in vitro at 2 ug.mL-1
Assay type: functional
Among all 4,400 compounds or so, about 390 (8.9%) showed an effect of 50% or more. Only a selection was taken, and strong results are over-represented in it overall.
observable: % inhibition (%)
Give bare numbers, in %.

Known % inhibition results, listed for orientation:
Cc1ccc(/C(=N/O)N(C)Cc2ccco2)c(Oc2cccc(F)c2)n1; 22
C=CCc1ccc(Oc2cc(/C(=N/O)NCc3ccc(OC)cc3)ccn2)c(OC)c1; 88
CCCCN(CC#N)Cc1coc(-c2ccc(OC)cc2)n1; 1
CC1CCN(/C(=N\O)c2ccc(Oc3c(F)c(F)cc(F)c3F)nc2)CC1; 9
CC1CCC(N/C(=N\O)c2cccnc2Oc2ccc(F)cc2Cl)CC1 (stereo unspecified); 95
O/N=C(\Nc1ccccc1)c1ccc(Oc2cccc3c2CCCC3)nc1; 22

The following compounds each have a reported value; give each one's % inhibition.
1. O/N=C(\NCc1ccccn1)c1cccnc1Oc1ccc2oc3ccccc3c2c1
2. FC(F)(F)c1cccc(CNCc2coc(-c3ccc(Cl)cc3Cl)n2)c1
3. COc1cc(-c2nc(CN3CCN(c4cc(C)nc5ccccc45)CC3)co2)cc(OC)c1OC
4. CCCC(CCC)NCc1coc(-c2ccc(O)cc2)n1
5. C=CCc1ccc(Oc2ccc(/C(=N/O)NCc3ccc(OC)cc3)cn2)c(OC)c1
6. CC1CCC(C)N1/C(=N\O)c1cccnc1Oc1ccc(F)cc1Cl (stereo unspecified)
7. COCCN(CCOC)Cc1coc(-c2ccc(O)cc2)n1
8. COc1cc(-c2nc(CN3CC[C@H]4CCCC[C@@H]4C3)co2)cc(OC)c1OC

Solution:
1: 7; 2: -2; 3: 10; 4: 14; 5: 10; 6: 24; 7: 38; 8: -12

The following compounds each have a reported value; give each one's % inhibition.
1. CCOc1ccccc1-c1nc(CNC(C)c2ccccc2)co1 (stereo unspecified)
2. CC1CC(C)CN(/C(=N\O)c2cccnc2Oc2ccccc2)C1 (stereo unspecified)

Solution:
[-8, 10]

###

Test system: Trypanosoma brucei
Experiment: DNDI: Inhibition of Human African Trypanosomiasis, SBRI 427, in vitro at 2 ug.mL-1
Type: functional
Screen size: about 4,400 compounds; about 390 (8.9%) showed an effect of 50% or more. What follows is part of a selection rich in strong results, with near analogues and random picks from the rest.
observable: % inhibition
Answer by giving the amount and then stating its unit.

CCC(CC)N/C(=N\O)c1cccnc1Oc1ccc(OC)cc1; 100%
Cc1ccc(/C(=N/O)NCCN2CCOCC2)c(Oc2ccc3ccccc3c2)n1; 15%
CCC(CC)NCc1coc(-c2ccc(OC)cc2)n1; -11%
O/N=C(\NC1CCCCC1)c1ccnc(Oc2ccc(F)c(F)c2)c1; 99%
CCOc1ccccc1-c1nc(CN(CC)c2cccc3ccccc23)co1; 4%
CCC(CC)N/C(=N\O)c1cccnc1Oc1ccccc1F; 96%

The following compounds each have a reported value; give each one's % inhibition.
1. O/N=C(\NCc1c(F)cccc1F)c1ccnc(Oc2ccc(F)c(Cl)c2)c1
2. CCC(CC)N/C(=N\O)c1cccnc1Oc1ccc(F)cc1
3. N#CCCN(Cc1coc(-c2ccc(Cl)cc2Cl)n1)C1CCCCC1
4. CN(Cc1coc(-c2ccccc2Cl)n1)C1CCN(Cc2ccccc2)C1 (centres undefined)
5. CCOc1ccc(Oc2ccc(/C(N)=N/O)cn2)cc1
6. FC(F)(F)c1ccc(-c2nc(CNCc3ccccc3C(F)(F)F)co2)cc1
7. COCCN(Cc1coc(-c2ccccc2C)n1)C(C)C
8. Cc1cccc(N2CCN(Cc3coc(-c4ccc(O)cc4)n3)CC2)c1C

Solution:
1: 30%; 2: 96%; 3: 3%; 4: -15%; 5: 10%; 6: 0%; 7: -31%; 8: 3%
